assay system: T1, recombinant fusion protein comprising human IL-2R beta subunit extracellular domain and mouse IgG2a Fc (human, UniProt P14784 27-240)
T1 construct: human IL-2 receptor beta subunit (CD122), extracellular domain; also called IL-2R beta/mFc; IL-2R beta ECD/mouse IgG2a Fc
T1 sequence (looked up): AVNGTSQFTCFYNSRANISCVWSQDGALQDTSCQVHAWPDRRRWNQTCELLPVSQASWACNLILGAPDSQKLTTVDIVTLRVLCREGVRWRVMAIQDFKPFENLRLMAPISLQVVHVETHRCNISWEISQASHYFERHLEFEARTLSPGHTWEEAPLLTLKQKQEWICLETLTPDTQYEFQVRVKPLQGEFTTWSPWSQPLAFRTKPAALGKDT
assay name: ELISA; polyvinyl chloride plates coated with IL-2R beta ECD/mouse IgG2a Fc at 10 µg/mL in PBS; Fc-fusion proteins diluted in M-PBS, 1 h at RT; detected with anti-human IgG-HRP
run conditions: both partners purified
metric name: binding result

binder: 80VPPEDLIE87 + I92L(K35E)/Fc (Fc fusion, human, UniProt P60568 21-153, looked up, the first two aa (Ala-Pro) are present in the Fc constructs; also called variant 2B further optimized by incorporating S87E; source: HEK-293T adapted to suspension, transient transfection, purified from supernatant (protein A)) APTSSSTKKTQLQLEHLLLDLQMILNGINNYKNPELTRMLTFKFYMPKKATELKHLQCLEEELKPLEEVLNLAQSKNFHVPPEDLIENINVLVLELKGSETTFMCEYADETATIVEFLNRWITFCQSIISTLT
metric name: binding result
result: binds
//
binder: H9(K35E)/Fc in which F92 was replaced by the phage-selected Leu (Fc fusion, human, UniProt P60568 21-153, looked up, human interleukin-2 with the H9 mutations except that residue 92 is Leu; the first two aa (Ala-Pro) are present in the Fc constructs; also called F92L-containing protein; source: HEK-293T adapted to suspension, transient transfection, purified from supernatant (protein A)) APTSSSTKKTQLQLEHLLLDLQMILNGINNYKNPELTRMLTFKFYMPKKATELKHLQCLEEELKPLEEVLNLAQSKNFHFDPRDVVSNINVLVLELKGSETTFMCEYADETATIVEFLNRWITFCQSIISTLT
metric name: binding result
result: binds
//
binder: 80VPPEDLIA87 + I92L(K35E)/Fc (Fc fusion, human, UniProt P60568 21-153, looked up, the first two aa (Ala-Pro) are present in the Fc constructs; source: HEK-293T adapted to suspension, transient transfection, purified from supernatant (protein A)) APTSSSTKKTQLQLEHLLLDLQMILNGINNYKNPELTRMLTFKFYMPKKATELKHLQCLEEELKPLEEVLNLAQSKNFHVPPEDLIANINVLVLELKGSETTFMCEYADETATIVEFLNRWITFCQSIISTLT
metric name: binding result
result: binds
//
binder: 81VPEDLIE87 + I92L(K35E)/Fc (Fc fusion, human, UniProt P60568 21-153, looked up, human interleukin-2 whose segment 81-87 reads VPEDLIE, with I92L; the first two aa (Ala-Pro) are present in the Fc constructs; source: HEK-293T adapted to suspension, transient transfection, purified from supernatant (protein A)) APTSSSTKKTQLQLEHLLLDLQMILNGINNYKNPELTRMLTFKFYMPKKATELKHLQCLEEELKPLEEVLNLAQSKNFHLVPEDLIENINVLVLELKGSETTFMCEYADETATIVEFLNRWITFCQSIISTLT
metric name: binding result
result: binds
//
binder: 81DPQDLIE87(K35E)/Fc (Fc fusion, human, UniProt P60568 21-153, looked up, human interleukin-2 whose segment 81-87 reads DPQDLIE; the first two aa (Ala-Pro) are present in the Fc constructs; source: HEK-293T adapted to suspension, transient transfection, purified from supernatant (protein A)) APTSSSTKKTQLQLEHLLLDLQMILNGINNYKNPELTRMLTFKFYMPKKATELKHLQCLEEELKPLEEVLNLAQSKNFHLDPQDLIENINVIVLELKGSETTFMCEYADETATIVEFLNRWITFCQSIISTLT
metric name: binding result
result: binds
//
binder: 80FDPHDVVE87 + I92L + V93L(K35E)/Fc (Fc fusion, human, UniProt P60568 21-153, looked up, the first two aa (Ala-Pro) are present in the Fc constructs; also called fusion protein derived from phage clone 1A; source: HEK-293T adapted to suspension, transient transfection, purified from supernatant (protein A)) APTSSSTKKTQLQLEHLLLDLQMILNGINNYKNPELTRMLTFKFYMPKKATELKHLQCLEEELKPLEEVLNLAQSKNFHFDPHDVVENINVLLLELKGSETTFMCEYADETATIVEFLNRWITFCQSIISTLT
metric name: binding result
result: binds
//
binder: H9(K35E)/Fc in which F92 was replaced by the original Ile (Fc fusion, human, UniProt P60568 21-153, looked up, human interleukin-2 with the H9 mutations except that residue 92 is the original Ile; the first two aa (Ala-Pro) are present in the Fc constructs; also called F92I-containing protein; source: HEK-293T adapted to suspension, transient transfection, purified from supernatant (protein A)) APTSSSTKKTQLQLEHLLLDLQMILNGINNYKNPELTRMLTFKFYMPKKATELKHLQCLEEELKPLEEVLNLAQSKNFHFDPRDVVSNINVIVLELKGSETTFMCEYADETATIVEFLNRWITFCQSIISTLT
metric name: binding result
result: binds
